Target: T1, recombinant human ASM protein (human, UniProt P17405 47-630)
T1 construct: Recombinant human ASM in solution; also called acid sphingomyelinase (ASM) protein
T1 sequence: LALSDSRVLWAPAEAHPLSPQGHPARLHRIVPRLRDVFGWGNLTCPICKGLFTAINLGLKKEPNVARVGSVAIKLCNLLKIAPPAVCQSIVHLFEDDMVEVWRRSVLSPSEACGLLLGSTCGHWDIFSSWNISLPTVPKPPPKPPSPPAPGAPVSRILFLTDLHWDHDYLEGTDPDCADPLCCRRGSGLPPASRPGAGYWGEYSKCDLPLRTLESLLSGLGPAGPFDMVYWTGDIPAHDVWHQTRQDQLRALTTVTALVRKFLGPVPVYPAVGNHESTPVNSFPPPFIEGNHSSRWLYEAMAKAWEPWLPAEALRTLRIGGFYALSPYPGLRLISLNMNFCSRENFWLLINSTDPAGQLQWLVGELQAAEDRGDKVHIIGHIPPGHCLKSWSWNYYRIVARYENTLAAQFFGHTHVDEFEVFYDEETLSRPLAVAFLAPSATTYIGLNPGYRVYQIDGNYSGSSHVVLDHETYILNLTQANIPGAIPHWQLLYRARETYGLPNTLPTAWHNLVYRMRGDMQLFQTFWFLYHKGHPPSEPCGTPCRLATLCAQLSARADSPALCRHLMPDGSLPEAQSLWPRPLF
Experiment: BLI (Octet), antibody on AHC sensor
# maps each entry to its kon

# Binder, kon / M⁻¹ s⁻¹
rows = [
    ("#9104a-E3 (antibody, human IgG4 S228P, lambda, V domains shown, VH of #9104v-H13 with VL of #9104v-L65; full-length IgG, lambda) VH: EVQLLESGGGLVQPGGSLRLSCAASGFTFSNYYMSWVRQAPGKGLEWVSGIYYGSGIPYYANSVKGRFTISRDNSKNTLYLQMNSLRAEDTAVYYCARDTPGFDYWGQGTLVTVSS VL: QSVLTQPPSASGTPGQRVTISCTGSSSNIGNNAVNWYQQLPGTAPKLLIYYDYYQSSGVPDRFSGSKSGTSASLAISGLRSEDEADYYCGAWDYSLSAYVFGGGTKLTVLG", 205000),
    ("#9104a-B7 (antibody, human IgG4 S228P, lambda, V domains shown, VH of #9104v-H31 with VL of #9104v-L21; full-length IgG, lambda) VH: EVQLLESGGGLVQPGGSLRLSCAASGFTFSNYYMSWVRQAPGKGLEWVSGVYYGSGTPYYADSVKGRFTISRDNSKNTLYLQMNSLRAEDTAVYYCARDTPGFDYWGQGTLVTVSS VL: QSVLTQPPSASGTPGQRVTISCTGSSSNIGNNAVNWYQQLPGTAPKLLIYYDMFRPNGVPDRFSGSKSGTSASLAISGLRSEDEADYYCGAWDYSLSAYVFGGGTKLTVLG", 250000),
    ("#9104a-D3 (antibody, human IgG4 S228P, lambda, V domains shown, VH of #9104v-H13 with VL of #9104v-L64; full-length IgG, lambda) VH: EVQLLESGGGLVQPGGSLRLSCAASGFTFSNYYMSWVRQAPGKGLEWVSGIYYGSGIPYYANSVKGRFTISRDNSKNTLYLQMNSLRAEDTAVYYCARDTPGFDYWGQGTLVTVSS VL: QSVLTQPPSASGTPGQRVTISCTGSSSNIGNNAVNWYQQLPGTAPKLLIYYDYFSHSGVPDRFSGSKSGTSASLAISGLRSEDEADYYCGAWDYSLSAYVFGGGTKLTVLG", 294000),
    ("#9104a-A1 (antibody, human IgG4 S228P, lambda, V domains shown, VH of #9104v-H10 with VL of #9104v-L20; full-length IgG, lambda) VH: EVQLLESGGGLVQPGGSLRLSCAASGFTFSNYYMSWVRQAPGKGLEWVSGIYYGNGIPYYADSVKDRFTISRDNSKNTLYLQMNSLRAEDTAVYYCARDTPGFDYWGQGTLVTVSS VL: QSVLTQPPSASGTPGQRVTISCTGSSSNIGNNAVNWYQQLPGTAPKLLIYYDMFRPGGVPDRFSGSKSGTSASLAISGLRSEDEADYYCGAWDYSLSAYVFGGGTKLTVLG", 220000),
    ("#9104a-D7 (antibody, human IgG4 S228P, lambda, V domains shown, VH of #9104v-H31 with VL of #9104v-L64; full-length IgG, lambda) VH: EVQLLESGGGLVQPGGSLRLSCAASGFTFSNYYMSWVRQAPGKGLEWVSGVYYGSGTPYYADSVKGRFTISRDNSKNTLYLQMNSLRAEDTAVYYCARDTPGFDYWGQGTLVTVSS VL: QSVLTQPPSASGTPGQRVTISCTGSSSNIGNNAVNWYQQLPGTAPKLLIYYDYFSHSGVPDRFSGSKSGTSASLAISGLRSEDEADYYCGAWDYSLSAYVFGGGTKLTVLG", 288000),
]

The measured values listed here are drawn from patent US20260201064A1.
